Entries and their pEC50
# study_target: PD-1/PD-L1 interaction (Homo sapiens)
# Construct: Jurkat cells (PD-1 plus NFAT-luciferase)
# Sequence (Q9NZQ7 19-290): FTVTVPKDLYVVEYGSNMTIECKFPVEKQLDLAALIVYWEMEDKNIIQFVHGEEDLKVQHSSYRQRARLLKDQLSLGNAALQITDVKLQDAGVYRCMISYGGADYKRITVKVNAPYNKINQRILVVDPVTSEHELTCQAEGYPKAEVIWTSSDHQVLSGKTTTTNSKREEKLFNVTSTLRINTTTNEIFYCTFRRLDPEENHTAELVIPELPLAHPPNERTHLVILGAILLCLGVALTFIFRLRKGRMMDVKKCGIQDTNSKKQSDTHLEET
# protocol_description: PD-1/PD-L1 NFAT Reporter Assay
# assay_setup: co-culture of PD-L1 expressing CHO cells and PD-1 overexpressing Jurkat cells, 6 hrs, NFAT luciferase
pEC50: −log10 of the molar value.

Before answering, review these 3 worked examples.
CCOC(=O)C1CN(Cc2ccc(-c3cccc(-c4cccc(NC(=O)c5ccnn(C)c5=O)c4C)c3Cl)nc2OC)C1 [Compound C-53] :: 7.00 to 8.00
COc1nc(-c2cccc(-c3cccc(NC(=O)c4ccnn(C)c4=O)c3C)c2Cl)cnc1CNC[C@@H]1CCC(=O)N1 [Compound B-5] :: 6.00 to 7.00
COc1nc(-c2cccc(-c3cccc(NC(=O)c4ccnn(C)c4=O)c3Cl)c2Cl)ccc1CN1CC(O)C1 [Compound C-7] :: ≥ 8.00

Exercise: Data request, read-out pEC50, for CCOC(=O)[C@@H](O)CNCc1ccc(-c2cccc(-c3cccc(NC(=O)c4ccnn(C)c4=O)c3Cl)c2Cl)nc1OC [Compound G-1]
Solution: 7.00 to 8.00

Exercise: Data request, read-out pEC50, for COc1nc(-c2cccc(-c3cccc(NC(=O)c4ccnn(C)c4=O)c3C)c2Cl)cc(C)c1CN1CC(C(=O)O)C1 [Compound C-91]
Solution: 7.00 to 8.00

Exercise: Data request, read-out pEC50, for COc1nc(-c2cccc(-c3cccc(NC(=O)c4ccnn(C)c4=O)c3Cl)c2Cl)cnc1CN1CC(O)C1 [Compound C-84]
Solution: 7.00 to 8.00

Exercise: Data request, read-out pEC50, for COc1nc(-c2cccc(-c3cccc(NC(=O)c4ccnn(C)c4=O)c3C)c2C)ccc1CN[C@@H]1CCOC[C@H]1O [Compound C-70]
Solution: 7.00 to 8.00
